Assay: Peptide stability in human serum (MALDI-TOF)
Assay type: in vitro ADME
Details: after 24h of incubation at 37°C in human serum, 100 µM (Figure 6); read-out: peptide still present
Experimental: The peptides were incubated at 37°C in 250 µL of human serum (Gibco) for different periods of time. Samples were collected and peptide degradation stopped by freezing at -20°C. The peptide was extracted from samples using the Proteo Miner Protein Enrichment System (Bio-Rad). […] MS data were analysed using the software Cliprot tools, Flex analysis, Bruker.
No end group written: not given here.
reported_metric: remaining at 24 h, 100 µM

Data request: Give its remaining at 24 h, 100 µM value. Item: GFWSRLINRLLEIGGSSRRVISRAKLAAAL [Peptide 2, GFWSRLINRLLEI- GGS -SRRVISRAKLAAAL]
Data returned: > 90%
